# Tested on: β-TrCP1/Skp1 (Homo sapiens)
# Sequence (Q9Y297 whole entry): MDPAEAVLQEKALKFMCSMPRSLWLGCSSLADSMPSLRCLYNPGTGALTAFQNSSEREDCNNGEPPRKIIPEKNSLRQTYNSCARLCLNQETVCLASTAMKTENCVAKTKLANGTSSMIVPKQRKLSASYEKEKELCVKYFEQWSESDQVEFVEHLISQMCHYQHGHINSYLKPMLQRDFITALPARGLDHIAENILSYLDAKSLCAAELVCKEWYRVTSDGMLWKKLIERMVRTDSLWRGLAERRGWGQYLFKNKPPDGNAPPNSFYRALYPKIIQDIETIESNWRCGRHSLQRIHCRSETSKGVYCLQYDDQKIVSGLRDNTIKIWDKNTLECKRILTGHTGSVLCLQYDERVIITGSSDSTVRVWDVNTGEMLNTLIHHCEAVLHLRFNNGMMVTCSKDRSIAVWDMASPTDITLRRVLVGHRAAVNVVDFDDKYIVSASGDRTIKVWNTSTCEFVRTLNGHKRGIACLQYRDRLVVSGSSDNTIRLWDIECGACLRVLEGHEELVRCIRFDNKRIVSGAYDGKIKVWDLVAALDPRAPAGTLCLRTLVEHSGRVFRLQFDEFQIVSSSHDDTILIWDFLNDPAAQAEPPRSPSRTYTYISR
# Sequence (P63208 2-163 partner limits assumed): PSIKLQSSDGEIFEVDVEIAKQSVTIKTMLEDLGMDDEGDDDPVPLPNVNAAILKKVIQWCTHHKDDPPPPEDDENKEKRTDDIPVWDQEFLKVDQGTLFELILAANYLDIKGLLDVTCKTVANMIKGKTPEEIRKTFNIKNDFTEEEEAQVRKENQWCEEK
# Protocol notes: βTrCP ubiquitination assay (Ub assay)
# Assay type: biochemical
# Applied conditions: 100 μM compound
Starred links: 1 amine or outer side, 2 acyl side, 3 side chain; linkers in the order of their positions; H or OH if unused. Non-standard residues stand in square brackets, D forms with d. Residues, ends and D or L forms follow the SMILES beside them. *: point of attachment. Phe(3-F) = N[C@@H](Cc1cccc(F)c1)C(=O)O; Suc = O=C(CCC(=O)[*:2])[*:1]; Ethoxycarbonyl = CCOC(=O)*
Reported endpoint: Ub Assay 100 μM

Compound	Reported endpoint	Observed value
CCOC(=O)N[C@H](CC(=O)O)C(=O)N[C@@H](CCC(=O)O)C(=O)NCC(=O)N[C@@H](Cc1cccc(F)c1)C(=O)N[C@@H](Cc1c[nH]c2ccccc12)C(=O)N[C@@H](CCC(=O)O)C(N)=O [UBP023, EtO(CO)-dEGF(3F)WE-NH2] (Ethoxycarbonyl-[dD]EG[Phe(3-F)]WE-NH2)	Ub Assay 100 μM	inhibits
NC(=O)[C@H](CCC(=O)O)NC(=O)[C@H](Cc1ccccc1)NC(=O)[C@H](Cc1ccccc1)NC(=O)CNC(=O)[C@H](CCC(=O)O)NC(=O)CCC(=O)O [UBP002, Suc-EGFFE-NH2] (Suc-EGFFE-NH2)	Ub Assay 100 μM	inhibits
